Origin of measurements: ChEMBL document CHEMBL1201862

- study system: UniProt:P9WMR3
- method notes: DnaB intein splicing inhibitors, dose response, biochemical, cell-free fluorescence (AID 449749)
- Assay type: functional
Calls of active or inactive are those of the source.
Entry note: the call must match one of active, inactive

Example results:
O=C1/C(=N\c2cccc(O)c2)C(N2CCCCC2)=C(O)c2ccccc21 ... active
Cc1cc(C(=O)N/N=C/c2c(C)nn(-c3ccccc3)c2O)[nH]n1 ... active
CCOC(=O)c1nnn(-c2nonc2-n2cccc2)c1CCl ... active
Cc1ccc(NC2=C(NC(=O)c3ccccc3)C(=O)c3ccccc3C2=O)cc1Cl ... active
Cc1ccccc1CS(=O)(=O)c1snnc1C ... inactive
CC(=O)N1CCC2(CC1)C(C#N)=C(N)Oc1[nH]nc(C)c12 ... active

Please look at the following molecule next.
## Input Given `Nc1ccc2ncccc2c1` , state the outcome it received in this test.
## Output active

====

- study system: Cytochrome P450 2C19 (Homo sapiens, UniProt P33261)
- Sequence (P33261 whole entry): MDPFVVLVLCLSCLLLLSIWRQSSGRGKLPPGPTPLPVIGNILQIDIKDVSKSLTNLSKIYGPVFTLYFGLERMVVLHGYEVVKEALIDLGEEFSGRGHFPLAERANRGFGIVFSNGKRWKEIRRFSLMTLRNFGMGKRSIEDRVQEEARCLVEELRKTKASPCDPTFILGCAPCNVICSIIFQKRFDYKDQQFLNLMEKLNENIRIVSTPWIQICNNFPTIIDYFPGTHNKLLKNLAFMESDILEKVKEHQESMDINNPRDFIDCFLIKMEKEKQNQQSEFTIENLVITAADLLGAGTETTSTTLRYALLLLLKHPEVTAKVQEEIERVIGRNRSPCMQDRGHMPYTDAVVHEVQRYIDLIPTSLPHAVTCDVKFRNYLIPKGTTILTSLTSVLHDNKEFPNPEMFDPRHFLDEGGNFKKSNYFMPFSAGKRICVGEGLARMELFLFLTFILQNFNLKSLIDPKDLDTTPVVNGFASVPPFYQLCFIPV
- method notes: Cytochrome panel assay with activity outcomes. Panel member name: p450-cyp2c19 Compounds with AC50 equal or less than 10 uM are considered active
- Type: functional
- protocol conditions: read-out: AC50
reported metric: AC50

Previously resolved entries follow.
Cc1ccc(-c2c(C)sc(NC(=O)C3C4CCC(O4)C3C(=O)O)c2C(=O)OC(C)C)cc1 (stereo not given) ... 28.2 µM (inconclusive)
Fc1ccc(-c2ccnc3nc(N4CCOCC4)nn23)cc1 ... 3.55 µM (inconclusive)
CC[C@H](c1ccc(O)cc1)[C@@H](CC)c1ccc(O)cc1 ... 3.16 µM (inconclusive)
Cn1c(=O)c(C(=O)CN2CCOCC2)c(N)n(Cc2ccccc2)c1=O ... 39.8 µM (inconclusive)
CN(C)C(=O)c1ccc(-c2nc(NCc3ccccc3)c3ccccc3n2)cc1 ... 25.1 µM (inconclusive)

## Input Given the entry `COc1ccccc1Nc1nc(-c2sc(NC(=O)c3ccccc3)nc2C)cs1` , report its measured AC50.
## Output 3.16 µM (inconclusive)

## Input Try `Sc1nc2cc(Cl)ccc2s1` next.
## Output 11.2 µM (inconclusive)

## Input Same read-out for `CCOC(=O)N1CCN(C(=O)c2cc(-c3ccc(F)cc3)[nH]c2C)CC1` ?
## Output 10 µM (inconclusive)

## Input Please give the result for `Cc1noc(C)c1-c1cc(N(C)Cc2ccco2)ncn1` too.
## Output 15.8 µM (inconclusive)

## Input One more molecule: CCC(=O)O[C@H]1CC[C@H]2[C@@H]3CCC4=CC(=O)CC[C@]4(C)[C@H]3CC[C@]12C [TESTOSTERONE PROPIONATE]
## Output 10 µM (inconclusive)

====

- study system: Protein RecA (Mycobacterium tuberculosis)
- method notes: Fluorescence Cell-Free Homogeneous Dose Retest to Identify Inhibitors of RecA-Intein Splicing Activity. [Related pubchem assays (depositor defined):AID2097, AID2223, AID489010, AID492950]
- Format: functional
Active and inactive are the calls of the source.
reported metric: EC50

O=c1[nH]cc(NCCc2ccccc2)c(=O)[nH]1 ... 10.1 µM (active)
Cc1cc(C(=O)N/N=C/c2c(C)nn(-c3ccccc3)c2O)[nH]n1 ... 27 µM (active)
COC(=O)c1cccc(-c2ccc(C(c3c(C)n[nH]c3O)c3c(C)n[nH]c3O)o2)c1 ... 0.175 µM (active)

Let's switch to this molecule now.
## Input Bench note: what EC50 did `Cc1[nH]c2ccc(F)cc2c1CCN(Cc1cccnc1)C(S)=Nc1ccc(F)cc1` show?
## Output 93.4 µM (active)

====

- study system: Polyadenylate-binding protein 1 (Homo sapiens)
- Sequence (P11940 whole entry): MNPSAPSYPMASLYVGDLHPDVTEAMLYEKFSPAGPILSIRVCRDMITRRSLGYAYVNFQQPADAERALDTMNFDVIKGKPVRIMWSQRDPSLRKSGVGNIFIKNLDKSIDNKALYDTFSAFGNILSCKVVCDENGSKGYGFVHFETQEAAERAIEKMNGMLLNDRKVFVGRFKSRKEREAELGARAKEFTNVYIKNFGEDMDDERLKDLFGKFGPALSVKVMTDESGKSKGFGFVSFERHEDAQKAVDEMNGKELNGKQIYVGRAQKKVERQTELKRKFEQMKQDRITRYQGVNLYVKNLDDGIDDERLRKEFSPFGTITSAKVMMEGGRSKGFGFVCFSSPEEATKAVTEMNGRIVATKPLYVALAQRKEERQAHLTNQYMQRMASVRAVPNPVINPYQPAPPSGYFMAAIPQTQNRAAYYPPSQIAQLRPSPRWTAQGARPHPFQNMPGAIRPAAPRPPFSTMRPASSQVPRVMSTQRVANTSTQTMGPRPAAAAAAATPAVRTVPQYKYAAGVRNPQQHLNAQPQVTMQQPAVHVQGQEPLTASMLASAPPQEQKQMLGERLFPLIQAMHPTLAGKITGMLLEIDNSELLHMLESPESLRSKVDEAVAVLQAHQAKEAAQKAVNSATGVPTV
- method notes: PABP1 MLLE–PAM2 interaction inhibitors, dose response, miRNA deadenylation inhibitor project, biochemical, fluorescence polarization, Cy5-PAM2 peptide, secondary (AID 602260)
- Assay type: functional
- protocol conditions: read-out: IC50_Mean
The source made the active and inactive calls.
Each item that follows carries a reported IC50.

Use the examples below as a reference point.
O=C(CC(Sc1ccccc1)c1cccs1)c1ccco1 (stereo not given) ... > 66 µM (inactive)
Cc1ccc(C)c(NC(S)=NNC(=O)c2csc(C(C)C)c2)c1 ... > 66 µM (inactive)
Cc1ccc(C(=O)CNc2cccc([N+](=O)[O-])c2)cc1 ... > 66 µM (inactive)
Cc1ccc(NC2=C(NC(=O)c3ccccc3)C(=O)c3ccccc3C2=O)cc1Cl ... > 66 µM (inactive)
O=C1/C(=N\c2cccc(O)c2)C(N2CCCCC2)=C(O)c2ccccc21 ... > 66 µM (inactive)
Cc1noc(/C=C/Nc2ccc(F)cc2F)c1[N+](=O)[O-] ... 35.7 µM (inactive)
COc1ccc(NC(=O)CSc2nnc(NC(C)=O)s2)c([N+](=O)[O-])c1 ... > 66 µM (inactive)
Cc1cc2cc(CNC(=O)c3ccc(S(=O)(=O)N4CCCCC4)cc3)ccc2n1C ... > 66 µM (inactive)

## Input IC50 lookup needed for `CCOCC(=O)Nc1nc2ccc(C)cc2s1` , thanks.
## Output > 66 µM (inactive)

## Input Continue with `O=C(O)c1ccc2c(c1)C(=O)/C(=C/c1ccccc1)C2=O`
## Output > 66 µM (inactive)

====

- study system: Lysine-specific demethylase 4C (Homo sapiens)
- Sequence (Q9H3R0 whole entry): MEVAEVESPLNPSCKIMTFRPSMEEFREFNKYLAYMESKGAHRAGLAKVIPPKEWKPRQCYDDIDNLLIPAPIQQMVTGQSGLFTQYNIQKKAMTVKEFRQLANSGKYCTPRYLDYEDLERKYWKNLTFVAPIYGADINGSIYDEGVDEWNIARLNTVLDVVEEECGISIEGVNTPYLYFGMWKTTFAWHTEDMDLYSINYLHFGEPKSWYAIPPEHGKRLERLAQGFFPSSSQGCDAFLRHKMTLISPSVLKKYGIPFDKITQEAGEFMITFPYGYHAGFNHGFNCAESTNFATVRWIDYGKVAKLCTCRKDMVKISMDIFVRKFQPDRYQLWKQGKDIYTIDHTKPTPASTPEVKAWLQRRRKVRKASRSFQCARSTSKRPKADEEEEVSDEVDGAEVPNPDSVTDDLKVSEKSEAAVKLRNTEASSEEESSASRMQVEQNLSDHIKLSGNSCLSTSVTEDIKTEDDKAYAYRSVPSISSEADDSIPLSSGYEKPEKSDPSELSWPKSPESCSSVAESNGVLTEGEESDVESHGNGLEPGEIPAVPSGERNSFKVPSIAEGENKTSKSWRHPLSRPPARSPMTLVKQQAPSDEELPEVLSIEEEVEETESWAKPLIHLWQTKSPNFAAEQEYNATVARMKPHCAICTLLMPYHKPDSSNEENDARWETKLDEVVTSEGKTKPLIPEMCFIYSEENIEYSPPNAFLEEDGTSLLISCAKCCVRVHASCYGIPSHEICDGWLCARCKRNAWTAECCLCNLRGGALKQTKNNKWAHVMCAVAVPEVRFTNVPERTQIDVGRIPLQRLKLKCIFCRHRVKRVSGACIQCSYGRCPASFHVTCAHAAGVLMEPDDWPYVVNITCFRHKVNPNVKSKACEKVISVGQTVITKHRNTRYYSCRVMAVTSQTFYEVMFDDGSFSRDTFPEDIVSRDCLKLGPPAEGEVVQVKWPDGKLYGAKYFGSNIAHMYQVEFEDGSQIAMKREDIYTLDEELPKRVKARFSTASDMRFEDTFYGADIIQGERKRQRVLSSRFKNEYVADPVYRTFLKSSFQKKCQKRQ
- method notes: GASC-1 (JMJD2C) histone demethylase inhibitors, dose response, biochemical, DELFIA europium, cherry-picked samples (AID 488835)
- Type: functional
The source made the active and inactive calls.
reported metric: AC50

Use these answered entries as a reference point.
c1ccc(-c2nc(-c3ccco3)cs2)nc1 ... 20 µM (active)
O=C(N/N=C/c1cc([N+](=O)[O-])cc([N+](=O)[O-])c1O)C(O)(c1ccccc1)c1ccccc1 ... 2 µM (active)
CCOC(=O)C1=C(Cc2ccc(F)cc2)C(=O)c2ccccc2C1=O ... 13.4 µM (active)

Let us move to another entry and its AC50.
## Input Report AC50 for `Cc1ccc(C)c(S(=O)(=O)Nc2cc(SCC(=O)O)c(O)c3ccccc23)c1` please.
## Output 4.94 µM (active)

====

- Test system: BJ
- method notes: cytotoxicity toward BJ-TERT fibroblasts, dose response, cell-based, RAS-independent, luminescence (AID 1933)
- Type: functional
- protocol conditions: Homo sapiens
Activity calls are given as the source filed them.
reported metric: EC50

Examples with answers:
CCOc1cc(/C=C2\CN(CC)C/C(=C\c3ccc(O)c(OCC)c3)C2=O)ccc1O ... 4090 nM (active)
CCn1cc(/C=N\NC(=O)c2ccc3c(c2)c(C)c(C)n3Cc2ccccc2)c(C)n1 ... > 150000 nM (not active)
CC1C/C(=C/c2ccncc2)C(=O)/C(=C/c2ccncc2)C1 (centres undefined) ... 1100 nM (inconclusive)

## Input // returns reported EC50 for input `CCCCCCCN(C(=O)CCl)c1cccc(C)c1`
## Output 360 nM (inconclusive)

====

- study system: DNA dC->dU-editing enzyme APOBEC-3G (Homo sapiens, UniProt Q9HC16)
- Sequence (Q9HC16 whole entry): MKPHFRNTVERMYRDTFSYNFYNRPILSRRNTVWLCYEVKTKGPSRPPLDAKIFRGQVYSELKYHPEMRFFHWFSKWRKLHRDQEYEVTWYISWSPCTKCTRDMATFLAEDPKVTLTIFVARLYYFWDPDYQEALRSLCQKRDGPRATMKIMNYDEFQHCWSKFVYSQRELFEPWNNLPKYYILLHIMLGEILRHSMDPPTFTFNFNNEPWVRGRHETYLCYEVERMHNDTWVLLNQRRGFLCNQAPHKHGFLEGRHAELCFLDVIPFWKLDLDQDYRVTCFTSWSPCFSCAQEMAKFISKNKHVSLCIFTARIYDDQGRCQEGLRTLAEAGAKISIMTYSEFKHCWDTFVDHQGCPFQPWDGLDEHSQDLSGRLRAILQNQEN
- method notes: Dose Response confirmation of small molecule APOBEC3G DNA Deaminase Inhibitors via a fluorescence-based single-stranded DNA deaminase assay. [Related pubchem assays (depositor defined):AID493012, AID493028]
- Type: functional
Active and inactive are the calls of the source.
reported metric: IC50

Nn1c(S)nnc1Cc1ccc(Br)cc1 ... 3.6 µM (active)
Cc1ccc(C2(C)NC(=O)N(CC(=O)Nc3nc(-c4ccccn4)cs3)C2=O)cc1 (stereo not given) ... 25.6 µM (active)
Sc1nnc(-c2ccccn2)n1/N=C/c1ccccc1 ... 9.26 µM (active)

## Input Query for DNA dC->dU-editing enzyme APOBEC-3G (Homo sapiens, UniProt Q9HC16): what IC50 does the record show for `O=C1NN=C(CSc2nnc(S)s2)CS1` ?
## Output 9.78 µM (active)

## Input Queued: `Cn1c(CSc2nc3ccccc3s2)n[nH]c1=S`
## Output 4.35 µM (active)

====

- method notes: Luminescence Cell-Based Dose Response HTS to Identify Inhibitors of 5'UTR Stem-Loop Driven Prion Protein mRNA Translation in H4 Neuroglioblastoma Cells. [Related pubchem assays: 1827 (Project Summary), 1813 (Primary HTS)]
- Type: functional
Activity calls are given as the source filed them.
reported metric: EC50

Solved cases (2 shown):
Cc1cc(/C(O)=C(/C([S-])=Nc2ccccc2)[n+]2ccccc2)c(C)n1-c1ccccc1 ... > 120 µM (not active)
C=CCc1ccccc1OCC(=O)N/N=C/c1ccc(OC(C)=O)cc1OC(C)=O ... 14.6 µM (active)

## Input // lookup EC50 for `O=C(Nc1ccc(OCc2ccccc2Cl)cc1)c1cccnc1`
## Output 0.909 µM (active)

## Input Repeat with C=CCOC(=O)C1=C(C)N=c2s/c(=C3\C(=O)N(CC(=O)O)c4ccccc43)c(=O)n2C1c1ccc(OC)cc1 (stereo unspecified)
## Output > 120 µM (not active)

## Input Lookup `O=C(CSc1nc2ccccc2c(=O)n1Cc1ccco1)N1CCCC1`
## Output > 120 µM (not active)

## Input Then `Cc1ccc(Cn2cc(C=O)c3ccccc32)cc1` ?
## Output < 0.1 µM (active)
